procedureSummary: qHTS assay to identify small molecule antagonists of the thyroid receptor (TR) signaling pathway (AID 743065); also: nearly all actives have a fitted effect of over 55% in size
experimentalContext: GH3.TRE-Luc, T3-stimulated luciferase inhibition, 23.5 h; series mostly up to 70.3 µM
Text: U.S. Tox21 Program National Center for Advancing Translational Sciences [NCATS] NIH Chemical Genomics Center [NCGC] U.S. Environmental Protection Agency [EPA] National Institutes of Environmental Health Sciences [NIEHS] National Toxicology Program [NTP] U.S. Food and Drug Administration [FDA] Tox21 Assay Overview: Thyroid receptor (TR), a nuclear hormone receptor, plays an important role in development, proliferation, differentiation, metabolism, brain function, and cardiovascular system. […]
Inconclusive results are not listed. Calls of active or inactive are those of the source. Calls follow the shape of the dose curve; as a rule, active = well fitted inhibition curve with a large enough effect in the repeat runs; inconclusive = weak or mixed curves; inactive = no such curve, though single readings can be large or run the other way.
Classes used: True = active, False = inactive

compound | assignedLabel
NNC(N)=S | False
O=C(O)CC[N+](=O)[O-] | False
CCCCCCOC(=O)c1ccccc1C(=O)OCCCCCC | False
CCCCC(CC)COC(=O)c1ccc(C(=O)OCC(CC)CCCC)c(C(=O)OCC(CC)CCCC)c1 (centres undefined) | False
Cc1cc(Cl)ccc1OCCCC(=O)O | False
O=C(O)C(F)(F)C(F)(F)C(F)(F)C(F)(F)C(F)(F)C(F)(F)C(F)(F)F | False
Nc1ccc(-c2ccccc2)cc1 | False
Nn1cnnc1 | False
C=CCN(CC=C)C(=O)C(Cl)Cl | False
COc1ccc(C=O)cc1 | False
C#C[C@]1(O)CC[C@H]2[C@@H]3CCC4=CC(=O)CC[C@]4(C)[C@H]3CC[C@@]21C | True
CNC(=O)N(C)c1nnc(C(C)(C)C)s1 | False
CN(C)C(=O)Nc1ccc(Cl)cc1 | False
CCCCC(CC)COC(=O)Cl (centres undefined) | False
N#CCCCl | False
NNC(=S)NN | False
CCc1cccc(CC)c1N(COC)C(=O)CCl | True
CCCCCCCCC(=O)NCc1ccc(O)c(OC)c1 | True
CCCCCCCCCCCOC(=O)c1ccccc1C(=O)OCCCCCCCCCCC | False
CCN(CC)C(=O)SCc1ccc(Cl)cc1 | False
OCC(O)CO | False
C[C@]12CCC(=O)C[C@@H]1CC[C@@H]1[C@@H]2CC[C@]2(C)[C@@H](O)CC[C@@H]12 | True
NC(=S)Nc1ccccc1 | False
Nc1ccncc1 | False
COP(=S)(OC)Oc1cc(Cl)c(Cl)cc1Cl | False
N#Cc1cc(Br)c(O)c(Br)c1 | True
Oc1cc(Cl)ccc1Oc1ccc(Cl)cc1Cl | True
C=C(C)C(=O)OCC1CO1 (centres undefined) | False
CC(C)Oc1cc(-n2nc(C(C)(C)C)oc2=O)c(Cl)cc1Cl | True
CCC(C)(c1ccc(O)cc1)c1ccc(O)cc1 | True
COc1ccc(C(CN(C)C)C2(O)CCCCC2)cc1 (centres undefined) | False
CCCCN(CCCC)N=O | False
O=Cc1ccco1 | False
C[C@]12CCC(=O)C(O)=C1CC[C@@H]1[C@@H]2CC[C@]2(C)C(=O)CC[C@@H]12 | False
CCOc1cc(C=O)ccc1O | False
O=[N+]([O-])c1cccc2ccccc12 | False
NCc1cccnc1 | False
Nc1ccc(Cl)c(Cl)c1 | False
c1ccc(N=Nc2ccccc2)cc1 | False
O=C(NC(=O)c1c(F)cccc1F)Nc1ccc(Cl)cc1 | False
CCN(N=O)C(N)=O | False
CCN(CC)N=O | False
O=C1C=CC(=O)C=C1 | False
COP(=O)(OC)OC | False
C=CCc1ccc(OC)cc1 | False
Oc1cc(Cl)ccc1Cl | False
O=P(O)(O)CCCl | False
CC(C)(C)c1ccccc1O | False
Nc1ccc(Cl)cc1N | True
Cc1ccccc1[N+](=O)[O-] | False
O=P(Oc1ccccc1)(Oc1ccccc1)Oc1ccccc1 | False
N#CC(Br)Br | False
Clc1nc(Cl)nc(Cl)n1 | False
COP(=S)(OC)Oc1ccc([N+](=O)[O-])cc1 | False

* * *

procedureSummary: qHTS assay to identify small molecule HDAC inhibitors (AID 1259364); also: potency is read from the fitted curve at half-maximal effect;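 also: wild-type HCT-116 cells with endogenous class I/II HDAC activity; nearly all actives have a fitted effect of over 45% in size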
experimentalContext: HCT-116 HDAC-Glo I/II luminescence, 2 h; series mostly up to 92.4 µM
Results filed as inconclusive are left out. Active and inactive are the calls of the source. Calls follow the shape of the dose curve; as a rule, active = well fitted inhibition curve with a large enough effect in the repeat runs; inconclusive = weak or mixed curves; inactive = flat fitted curve, though single readings scatter.
testReadout: Potency

molecule | endpointResult
CCC(C)(C)c1ccc(O)cc1 | inactive
Cc1cc(C)cc(C)c1 | inactive
Oc1ccc(-c2ccccc2)cc1 | inactive
Cc1ccc(OP(=O)(Oc2ccc(C)cc2)Oc2ccc(C)cc2)cc1 | inactive
O=P(Oc1ccccc1)(Oc1ccccc1)Oc1ccccc1 | inactive
CC(C)C(=O)OCC(C)(C)C(OC(=O)C(C)C)C(C)C (configuration not stated) | inactive
CCN(CC)N=O | inactive
c1ccc(NNc2ccccc2)cc1 | 15.4 µM (active)
CCCCC(CC)COC(=O)c1ccc(C(=O)OCC(CC)CCCC)c(C(=O)OCC(CC)CCCC)c1 (configuration not stated) | inactive
CC1(C)C(C=C(Cl)Cl)C1C(=O)OC(C#N)c1cccc(Oc2ccccc2)c1 (configuration not stated) | inactive
CC(C)(c1cc(Cl)c(O)c(Cl)c1)c1cc(Cl)c(O)c(Cl)c1 | inactive
CCOP(=S)(OCC)O/N=C(\C#N)c1ccccc1 | inactive
Oc1cc(Cl)c(Cl)cc1Cl | inactive
CCOc1cc(C=O)ccc1O | inactive
Cc1c(COC(=O)[C@@H]2[C@H](/C=C(\Cl)C(F)(F)F)C2(C)C)cccc1-c1ccccc1 | inactive
C[C@]12CCC(=O)C[C@@H]1CC[C@@H]1[C@@H]2CC[C@]2(C)[C@@H](O)CC[C@@H]12 | inactive
CNC(=O)N(C)c1nnc(C(C)(C)C)s1 | 27.3 µM (active)
CC(C)=CC1C(C(=O)OCc2coc(Cc3ccccc3)c2)C1(C)C (configuration not stated) | inactive
N#Cc1cc(Br)c(O)c(Br)c1 | inactive
NNC(N)=S | inactive
Nc1cccnc1 | inactive
C=C(C)[C@H]1Cc2c(ccc3c2O[C@@H]2COc4cc(OC)c(OC)cc4[C@@H]2C3=O)O1 | inactive
CC(C)(OOC(C)(C)c1ccccc1)c1ccccc1 | inactive
CCCCN(CCCC)N=O | inactive
c1nc[nH]n1 | inactive
CCCCCCCCOC(=O)c1ccccc1C(=O)OCCCCCCCC | inactive
N#CCCCl | inactive
Cc1cccc(N)c1N | inactive
O=C(O)C(F)(F)C(F)(F)C(F)(F)C(F)(F)C(F)(F)C(F)(F)C(F)(F)F | inactive
CCCCOCCOP(=O)(OCCOCCCC)OCCOCCCC | inactive
C=CC(=O)OCCO | inactive
CCN(N=O)C(N)=O | inactive

* * *

procedureSummary: qHTS assay to identify small molecule antagonists of the estrogen receptor beta (ER-beta) signaling pathway - cell viability counter screen (AID 1259382); also: nearly all actives have a fitted effect of over 55% in size
experimentalContext: ER-beta-UAS-bla HEK293T viability, CellTiter-Glo luminescence, 16 h; series mostly up to 92.4 µM
Inconclusive results are not listed. Calls of active or inactive are those of the source. The call rests on the fitted dose curve; in most records, active means well fitted cell-killing curve with a large enough effect in the repeat runs; inconclusive means weak or mixed curves; inactive means flat fitted curve, though single readings scatter.
Classes used: T for active, F for inactive

molecule | assignedLabel
CCCCN(CCCC)N=O | F
O=Cc1ccco1 | F
Cc1c(COC(=O)[C@@H]2[C@H](/C=C(\Cl)C(F)(F)F)C2(C)C)cccc1-c1ccccc1 | F
CCC(C)c1ccc(O)cc1 (stereo not given) | F
CCCCC(CC)COC(=O)Cl (stereo not given) | F
c1nc[nH]n1 | F
Nn1cnnc1 | F
OCC(O)CO | F
CNC(=O)N(C)c1nnc(C(C)(C)C)s1 | F
C1=Cc2cccc3cccc1c23 | F
CCC(CC)Nc1c([N+](=O)[O-])cc(C)c(C)c1[N+](=O)[O-] | F
O=P(Oc1ccccc1)(Oc1ccccc1)Oc1ccccc1 | F
N#Cc1cc(Br)c(O)c(Br)c1 | F
O=C(Nc1ccc(Br)cc1)c1cc(Br)cc(Br)c1O | T
C=CCc1ccc2c(c1)OCO2 | F

* * *

procedureSummary: qHTS assay to identify small molecule antagonists of the estrogen related receptor (ERR) signaling pathway from Tox21 library - cell viability counter screen (AID 1224834); also: nearly all actives have a fitted effect of over 30% in size
experimentalContext: ERR reporter cells viability, CellTiter-Fluor, 17.5 h; series mostly up to 92.4 µM
Records with an inconclusive call do not appear. The source made the active and inactive calls. The call rests on the fitted dose curve; in most records, active means well fitted cell-killing curve with a large enough effect in the repeat runs; inconclusive means weak or mixed curves; inactive means flat fitted curve, though single readings scatter.
Classes used: label 1 = active, label 0 = inactive

compound | assignedLabel
CCN(CC)C(=O)SCc1ccc(Cl)cc1 | label 0
CC(C)=CC1C(C(=O)OCc2coc(Cc3ccccc3)c2)C1(C)C (stereo not drawn) | label 0
CCCCC(CC)COC(=O)c1ccc(C(=O)OCC(CC)CCCC)c(C(=O)OCC(CC)CCCC)c1 (stereo not drawn) | label 0
CCCCCCCCC(=O)NCc1ccc(O)c(OC)c1 | label 0
CCCCCCCCOC(=O)c1ccccc1C(=O)OCCCCCCCC | label 0
CCCCCc1cc(O)cc(O)c1 | label 1
Brc1ccc(Oc2cc(Br)c(Br)cc2Br)c(Br)c1 | label 0
CNC(=O)Oc1cccc2c1OC(C)(C)O2 | label 0
CC(C)C(=O)OCC(C)(C)C(OC(=O)C(C)C)C(C)C (stereo not drawn) | label 0
Oc1ccc(-c2ccccc2)cc1 | label 0
Oc1c(Cl)c(Cl)c(Cl)c(Cl)c1Cl | label 0
C=C(C)C(=O)OCC1CO1 (stereo not drawn) | label 0
c1nc[nH]n1 | label 0
